Target: 25P Btk enzyme (un-activated full-length Btk) (Homo sapiens (Human))
Sequence (Q06187 whole entry): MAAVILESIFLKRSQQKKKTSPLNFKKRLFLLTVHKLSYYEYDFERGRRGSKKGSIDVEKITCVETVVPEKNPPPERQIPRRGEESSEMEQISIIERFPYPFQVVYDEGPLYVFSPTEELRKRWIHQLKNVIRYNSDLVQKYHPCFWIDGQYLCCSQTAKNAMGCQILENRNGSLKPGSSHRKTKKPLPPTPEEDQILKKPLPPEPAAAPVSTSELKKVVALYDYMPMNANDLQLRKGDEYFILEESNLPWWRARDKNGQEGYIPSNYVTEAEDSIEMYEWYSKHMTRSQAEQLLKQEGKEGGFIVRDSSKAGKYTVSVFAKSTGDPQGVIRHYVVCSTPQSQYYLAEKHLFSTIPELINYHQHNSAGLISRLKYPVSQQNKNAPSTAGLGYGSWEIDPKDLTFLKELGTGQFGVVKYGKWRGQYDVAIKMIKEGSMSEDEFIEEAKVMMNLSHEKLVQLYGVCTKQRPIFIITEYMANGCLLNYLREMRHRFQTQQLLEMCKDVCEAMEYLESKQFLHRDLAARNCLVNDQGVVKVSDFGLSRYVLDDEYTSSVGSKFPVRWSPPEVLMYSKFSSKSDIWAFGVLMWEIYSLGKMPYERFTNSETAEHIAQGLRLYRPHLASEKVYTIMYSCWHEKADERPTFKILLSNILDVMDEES
Assay: 25P Btk Enzyme Activity Assay (LANCE TR-FRET)
Type: biochemical
Conditions: un-activated Btk (25P), 25 μM ATP, 60 minute compound and enzyme incubation; read-out: Btk binding IC50 (nM) with 25 P
recorded_metric: IC50 (nM)

• Cn1cc(-c2cc(-c3cccc(NC(=O)c4cc5c(s4)CCCC5)c3CO)cc3c(N)n[nH]c23)cn1 = 0.13
• CC(C)(C)c1cc(F)c2c(=O)n(-c3cccc(-c4cc5c(N)n[nH]c5cn4)c3CO)ncc2c1 = 9.5
• CC(C)(C)c1cc(F)c2c(=O)n(-c3cccc(-c4cc(C(=O)N5CCOCC5)c5[nH]nc(N)c5c4)c3CO)ncc2c1 = 173
• CC(C)(C)c1cc(F)c2c(=O)n(-c3cccc(-c4cc(-c5ccccn5)c5[nH]nc(N)c5c4)c3CO)ncc2c1 = 0.11
• CC(C)(C)c1cc(F)c2c(=O)n(-c3cccc(-c4cc(-c5cnn(C6CCOCC6)c5)c5[nH]nc(N)c5c4)c3CO)ncc2c1 = 0.18
• CC(C)(C)c1cc(F)c2c(=O)n(-c3cccc(-c4cc(C(F)(F)F)c5[nH]nc(N)c5c4)c3CO)ncc2c1 = 38.6
• Cc1cc2[nH]nc(N)c2cc1-c1cccc(-n2ncc3cc(C(C)(C)C)cc(F)c3c2=O)c1CO = 10.9
• Cc1c(NC(=O)c2ccc(C(C)(C)C)cc2)cccc1-c1cc(-c2cnn(C)c2)c2[nH]nc(N)c2c1 = 16.7
• CC(C)(C)c1cc(F)c2c(=O)n(-c3cccc(-c4cc(-c5cnn(CC(=O)O)c5)c5[nH]nc(N)c5c4)c3CO)ncc2c1 = 0.18
• CC(C)(C)c1cc(F)c2c(=O)n(-c3cccc(-c4cc(-c5cnn(C(C)(C)C(=O)O)c5)c5[nH]nc(N)c5c4)c3CO)ncc2c1 = 0.28
• CNC(=O)c1cc(-c2cccc(-n3ncc4cc(C(C)(C)C)cc(F)c4c3=O)c2CO)cc2c(N)n[nH]c12 = 0.16
• Cc1nn(C)cc1-c1cc(-c2cccc(-n3ncc4cc(C(C)(C)C)cc(F)c4c3=O)c2CO)cc2c(N)n[nH]c12 = 0.43
• CC(C)(C)c1cc(F)c2c(=O)n(-c3cccc(-c4cc(-c5ccccc5)c5[nH]nc(N)c5c4)c3CO)ncc2c1 = 0.48
• COCCn1cc(-c2cc(-c3cccc(-n4ncc5cc(C(C)(C)C)cc(F)c5c4=O)c3CO)cc3c(N)n[nH]c23)cn1 = 0.096
